Entries with their measured IC50, system UniProtKB P09874:
observable: IC50

* CCc1nc2c([nH]c1=O)C[C@@H](CN1CCN(c3ccc(C(=O)NC)nc3F)CC1)CC2 | ≤ 50 nM
* CCc1cc2c([nH]c1=O)CC(CN1CC=C(c3ccc(C(=O)NC)nc3C)CC1)CC2 (stereo not shown) | ≤ 50 nM
* CCc1cc2c([nH]c1=O)CC(CN1CC=C(c3ccc(C(=O)NC4CC4)nc3F)CC1)OC2 (stereo not shown) | ≤ 50 nM
* CNC(=O)c1ccc(C2=CCN(CC3Cc4[nH]c(=O)c(C(F)F)cc4CO3)CC2)c(F)n1 (stereo not shown) | 50 to 500 nM
* CNC(=O)c1ccc(C2=CCN(CC3Cc4[nH]c(=O)c(C)cc4CO3)CC2)c(Cl)n1 (stereo not shown) | 50 to 500 nM
* CNC(=O)c1ccc(C2=CCN(CC3Cc4[nH]c(=O)c(C)cc4CO3)CC2)c(F)n1 (stereo not shown) | 50 to 500 nM
* CNC(=O)c1ccc(N2CCN(C[C@H]3CCc4nc(C)c(=O)[nH]c4C3)CC2)c(Cl)n1 | ≤ 50 nM
* CCc1cc2c([nH]c1=O)CC(CN1CC=C(c3ccc(C(=O)NC4CC4)nc3)CC1)OC2 (stereo not shown) | ≤ 50 nM
* Cc1nc2c([nH]c1=O)C[C@@H](CN1CCN(c3ccc(C(=O)NC4CC4)nc3F)CC1)CC2 | ≤ 50 nM
* CCc1cc2c([nH]c1=O)CC(CN1CCN(c3ccc(C(=O)NC4CC4)nc3)CC1)OC2 (stereo not shown) | ≤ 50 nM
* Cc1cc2c([nH]c1=O)CC(CN1CCN(c3ccc(C(=O)Nc4cnn(C)c4)nc3F)CC1)OC2 (stereo not shown) | ≤ 50 nM
* CNC(=O)c1ccc(N2CCN(CC3COc4cc(Cl)c(=O)[nH]c4C3)CC2)c(F)n1 (stereo not shown) | 50 to 500 nM
* CNC(=O)c1ccc(N2CCN(CC3Cc4[nH]c(=O)c(SC)cc4CO3)CC2)c(F)n1 (stereo not shown) | ≤ 50 nM
* CNC(=O)c1ccc(C2=CCN(C[C@H]3CCc4nc(C5CC5)c(=O)[nH]c4C3)CC2)c(F)n1 | ≤ 50 nM
* CCc1cc2c([nH]c1=O)CC(CN1CCN(c3ccc(C(=O)NCC(F)F)nc3F)CC1)CC2 (stereo not shown) | ≤ 50 nM
* [2H]C([2H])([2H])NC(=O)c1ccc(C2=CCN(CC3CCc4cc(CC)c(=O)[nH]c4C3)CC2)cn1 (stereo not shown) | ≤ 50 nM
